Here we list compounds with their recorded log10(IC50) when tested on Autotaxin (ATX) (Homo sapiens (Human), UniProt Q13822).
outcomeMeasure: log10(IC50) (log10 of the value in nM)

- compound: "CCc1nn2c(C)cc(N3CCN(CC(=O)N4CC(O)C4)C[C@H]3C)nc2c1N(C)c1nc(-c2ccc(F)cc2)c(C#N)s1 [Compound S-0070]"
  outcomeMeasure: "log10(IC50)"
  assayValue: 1.56
- compound: "CCc1nn2c(C)cc(N3CCN(CC(=O)N4CC(O)C4)C[C@@H]3C)nc2c1N(C)c1nc(-c2ccc(F)cc2)c(C#N)s1 [Compound S-0071]"
  outcomeMeasure: "log10(IC50)"
  assayValue: 1.66
- compound: "CCN(c1nc(-c2ccc(F)cc2)c(C#N)s1)c1c2cc(N3CCN(CC(=O)N4CC(O)C4)CC3)cc(F)c2nn1CC [Compound S-0122]"
  outcomeMeasure: "log10(IC50)"
  assayValue: 1.40
- compound: "CC(C)n1nc2c(F)cc(N3CCN(CC(=O)N4CC(O)C4)CC3)cc2c1N(C)c1nc(-c2ccc(F)cc2)c(C#N)s1 [Compound S-0125]"
  outcomeMeasure: "log10(IC50)"
  assayValue: 2.25
- compound: "CCc1oc2ccc(N3CCN(CC(=O)N4CC(O)C4)CC3)nc2c1N(C)c1nc(-c2ccc(F)cc2)c(C#N)s1 [Compound S-0097]"
  outcomeMeasure: "log10(IC50)"
  assayValue: 2.20
- compound: "CCn1nc2c(F)cc(N3CCN(CC(=O)N4CC(O)C4)CC3)cc2c1N(C)c1nc(-c2ccc(F)c(F)c2)c(C#N)s1 [Compound S-0027]"
  outcomeMeasure: "log10(IC50)"
  assayValue: 2.22
- compound: "CCc1nn2c(C)cc(N3CCN(CC(=O)N4CC(O)C4)CC3)nc2c1N(CC)c1nc(-c2ccc(F)cc2)c(C#N)s1 [Compound S-0069]"
  outcomeMeasure: "log10(IC50)"
  assayValue: 1.63
- compound: "CCn1nc2c(F)cc(N3CCN(CC(=O)N4CC(O)C4)CC3)cc2c1N(C)c1ccc(C#N)c(-c2ccc(F)cc2)n1 [Compound S-0030]"
  outcomeMeasure: "log10(IC50)"
  assayValue: 2.61
- compound: "CCc1sc2ccc(N3CCN(CC(=O)N4CC(O)C4)CC3)nc2c1N(C)c1nc(-c2ccc(F)cc2)c(C#N)s1 [Compound S-0129]"
  outcomeMeasure: "log10(IC50)"
  assayValue: 2.42
- compound: "CCN(c1nc(-c2ccc(F)cc2)c(C#N)s1)c1c2cc(N3CCN(CC(=O)N4CC(O)C4)CC3C(F)(F)F)cc(F)c2nn1CC (single isomer, unassigned) [Compound S-0134B]"
  outcomeMeasure: "log10(IC50)"
  assayValue: 1.04
- compound: "CCN(c1nc(-c2ccc(F)cc2)c(C#N)s1)c1c2cc(N3CCN(CC(=O)N4CC(O)C4)CC3C(F)(F)F)cc(F)c2nn1CC (single isomer, unassigned) [Compound S-0134A]"
  outcomeMeasure: "log10(IC50)"
  assayValue: 1.30
- compound: "CCn1nc2c(C)cc(N3CCN(CC(=O)N4CC(O)C4)CC3)nc2c1N(CC(F)F)c1nc(-c2ccc(F)cc2)c(C#N)s1 [Compound S-0141]"
  outcomeMeasure: "log10(IC50)"
  assayValue: 1.63
- compound: "CCc1oc2ncc(N3CCN(CC(=O)N4CC(O)C4)CC3)cc2c1N(C)c1nc(-c2ccc(F)cc2)c(C#N)s1 [Compound S-0045]"
  outcomeMeasure: "log10(IC50)"
  assayValue: 2.42
- compound: "CCn1nc2c(C)cc(N3CCN(CC(=O)N4CC(O)C4)CC3)nc2c1N(CC(F)(F)F)c1nc(-c2ccc(F)cc2)c(C#N)s1 [Compound S-0140]"
  outcomeMeasure: "log10(IC50)"
  assayValue: 2.51
- compound: "CCc1nc2ncc(N3CCN(CC(=O)N4CC(O)C4)CC3)cn2c1N(C)c1nc(-c2ccc(F)cc2)c(C#N)s1 [Compound S-0021]"
  outcomeMeasure: "log10(IC50)"
  assayValue: 2.01
- compound: "CCc1nn2ccc(N3CCN(CC(=O)N4CC(C)(O)C4)CC3)nc2c1N(C)c1nc(-c2ccc(F)cc2)c(C#N)s1 [Compound S-0120]"
  outcomeMeasure: "log10(IC50)"
  assayValue: 1.61
- compound: "CCn1nc2c(C)cc(N3CCN(CC(=O)N4CC(O)C4)CC3)nc2c1N(C)c1nc(-c2ccc(F)cc2)c(C#N)s1 [Compound S-0095]"
  outcomeMeasure: "log10(IC50)"
  assayValue: 2.08
- compound: "CCc1nn2c(C)cc(N3CCN(CC(=O)N4CC(O)C4)CC3)nc2c1N(C)c1nc(-c2ccc(F)c(F)c2)c(C#N)s1 [Compound S-0068]"
  outcomeMeasure: "log10(IC50)"
  assayValue: 2.03
- compound: "CCc1oc2c(F)cc(N3CCN(CC(=O)N4CC(O)C4)CC3)cc2c1N(C)c1nc(-c2ccc(F)cc2)c(C#N)s1 [Compound S-0024]"
  outcomeMeasure: "log10(IC50)"
  assayValue: 2.27
- compound: "CCc1nn2c(C)cc(N3CCN(CC(=O)N4CC(O)C4)[C@@H](C)C3)nc2c1N(C)c1nc(-c2ccc(F)cc2)c(C#N)s1 [Compound S-0075]"
  outcomeMeasure: "log10(IC50)"
  assayValue: 1.94
- compound: "CCc1nc2ncc(N3CCN(CC(=O)N4CC(O)C4)CC3)cn2c1N(CC)c1nc(-c2ccc(F)cc2)c(C#N)s1 [Compound S-0058]"
  outcomeMeasure: "log10(IC50)"
  assayValue: 1.60
- compound: "CCc1[nH]c2ccc(N3CCN(CC(=O)N4CC(O)C4)CC3)nc2c1N(C)c1nc(-c2ccc(F)cc2)c(C#N)s1 [Compound S-0098]"
  outcomeMeasure: "log10(IC50)"
  assayValue: 1.49
- compound: "CN(c1nc(-c2ccc(F)cc2)c(C#N)s1)c1c2cc(N3CCN(CC(=O)N4CC(O)C4)CC3)cc(F)c2nn1C1CC1 [Compound S-0126]"
  outcomeMeasure: "log10(IC50)"
  assayValue: 2.00
- compound: "CCc1nn2ccc(N3CCN(CC(=O)N4CC(O)C4)CC3)cc2c1N(C)c1nc(-c2ccc(F)cc2)c(C#N)s1 [Compound S-0040]"
  outcomeMeasure: "log10(IC50)"
  assayValue: 2.88

Entry source: patent US11591342B2
